Target: mutant form of the human GPR119 receptor (Homo sapiens, UniProt Q8TDV5, S329A/T327A)
Construct: T327 & S329 changed to alanines
Sequence (Q8TDV5 2-335 T327A/S329A): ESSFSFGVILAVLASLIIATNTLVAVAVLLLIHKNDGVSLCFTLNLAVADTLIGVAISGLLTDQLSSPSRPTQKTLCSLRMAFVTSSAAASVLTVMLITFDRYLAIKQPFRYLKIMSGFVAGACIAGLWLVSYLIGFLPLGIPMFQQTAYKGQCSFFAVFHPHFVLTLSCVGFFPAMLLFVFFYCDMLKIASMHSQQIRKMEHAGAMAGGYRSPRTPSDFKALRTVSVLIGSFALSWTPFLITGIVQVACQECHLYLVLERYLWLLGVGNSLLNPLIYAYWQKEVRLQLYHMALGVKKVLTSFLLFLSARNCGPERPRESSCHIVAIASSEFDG
Assay: LANCE cAMP-384 assay in HEK293 cells stably expressing a mutant form of the human GPR119 receptor
Details: HEK293 cells stably expressing mutant human GPR119, LANCE cAMP-384 Kit, 20 min at 37° C.
Parameter: EC50 (nM)

CC(C)c1noc(N2CCC(N(C(=O)c3ccc(-n4cncn4)cc3)C3CC3)CC2)n1 [Example 97] : 170
Cc1nccn1-c1ccc(C(=O)N(C2CC2)C2CCN(c3ncc(Cl)cn3)CC2)cc1F [Example 112] : 1500
Cc1nnnn1-c1ccc(C(=O)N(C2CC2)C2CCN(c3ncc(Cl)cn3)CC2)cc1F [Example 116] : 294
Cc1nnnn1-c1ccc(C(=O)N(C2CC2)C2CCN(c3ncc(C(F)(F)F)cc3F)CC2)cc1 [Example 118] : 101
Cc1nccn1-c1ccc(C(=O)N(C2CC2)C2CCN(c3nc(C(C)C)no3)CC2)cc1F [Example 99] : 1740
Cc1ncnn1-c1ccc(C(=O)N(C2CC2)C2CCN(c3nc(C(C)C)no3)CC2)cc1F [Example 101] : 1130
O=C(c1ccc(-n2cncn2)cc1)N(C1CC1)C1CCN(c2ncc(C(F)(F)F)cc2F)CC1 [Example 91] : 48

====

Target: human GPR119 (Homo sapiens, UniProt Q8TDV5)
Construct: expression vector for human GPR119 cDNA (Acc. No. NP_848566)
Sequence (Q8TDV5 whole entry): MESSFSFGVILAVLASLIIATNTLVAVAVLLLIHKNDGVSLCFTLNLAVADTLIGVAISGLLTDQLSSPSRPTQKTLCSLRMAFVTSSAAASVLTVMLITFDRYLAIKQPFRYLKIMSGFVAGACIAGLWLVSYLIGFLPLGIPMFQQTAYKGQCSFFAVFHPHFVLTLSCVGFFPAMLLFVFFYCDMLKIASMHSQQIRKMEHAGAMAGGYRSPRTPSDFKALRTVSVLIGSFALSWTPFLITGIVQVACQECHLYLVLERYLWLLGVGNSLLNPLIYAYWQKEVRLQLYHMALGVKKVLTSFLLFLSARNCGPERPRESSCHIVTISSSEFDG
Experiment: AlphaScreen cAMP assay in MIN6 cells stably transfected with human GPR119
Conditions: Min-6/hGPR119 cells, AlphaScreen cAMP Assay Kit, 45 minutes incubation at room temperature
Parameter: EC50 (nM)

O=C(c1ccc(-c2cnco2)cc1)N(C1CC1)C1CCN(c2ncccn2)CC1 : 393
Cc1cnc(C)c(N2CCC(N(C(=O)c3ccc(-c4cnco4)cc3)C3CC3)CC2)n1 : 116
O=C(c1ccc(-c2cnco2)cc1)N(C1CC1)C1CCN(c2noc(-c3cnccn3)n2)CC1 : 277
O=C(c1ccc(-c2cnco2)cc1)N(C1CC1)C1CCN(c2nc(Cl)ns2)CC1 : 53
O=C(c1ccc(-c2cnco2)cc1)N(C1CC1)C1CCN(c2ccc(C3CC3)nn2)CC1 : 864
O=C(c1ccc(-c2cnco2)cc1)N(C1CC1)C1CCN(c2ncc(Cl)cn2)CC1 : 19
Cc1ccc(N2CCC(N(C(=O)c3ccc(-c4cnco4)cc3)C3CC3)CC2)nc1 : 85
O=C(c1ccc(-c2cnco2)cc1)N(C1CC1)C1CCN(c2nc(-c3ccccn3)no2)CC1 : 275
O=C(c1ccc(-c2cnco2)cc1)N(C1CC1)C1CCN(c2ncc(Br)cc2F)CC1 : 11
O=C(c1ccc(-c2cnco2)cc1)N(C1CC1)C1CCN(c2nc(-c3ccncc3)no2)CC1 : 80
Cc1ncoc1-c1ccc(C(=O)N(C2CC2)C2CCN(c3nc(-c4ccccc4)no3)CC2)cc1 : 38
O=C(c1ccc(-c2cnco2)cc1)N(C1CC1)C1CCN(c2nc(C3CCOCC3)no2)CC1 : 159
CC(C)Cc1noc(N2CCC(N(C(=O)c3ccc(-c4cnco4)cc3)C3CC3)CC2)n1 : 15
O=C(c1ccc(-c2cnco2)cc1)N(C1CC1)C1CCN(c2nnc(C(F)(F)F)s2)CC1 : 25
COC(=O)c1cnc(N2CCC(N(C(=O)c3ccc(-c4cnco4)cc3)C3CC3)CC2)nc1 : 116
O=C(c1ccc(-c2cnco2)cc1)N(C1CC1)C1CCN(c2ncc(C(F)(F)F)cc2F)CC1 : 8
